From: patent US20240383993A1

- TEST_TARGET: T1, His-tagged cynomolgus 4-1BB protein (cynomolgus, UniProt A9YYE7 24-186)
- T1 construct: Coated on ELISA plates at 2 µg/ml; also called Cyno 4-1BB; soluble cynomolgus 4-1BB; not shown: His tag
- T1 sequence: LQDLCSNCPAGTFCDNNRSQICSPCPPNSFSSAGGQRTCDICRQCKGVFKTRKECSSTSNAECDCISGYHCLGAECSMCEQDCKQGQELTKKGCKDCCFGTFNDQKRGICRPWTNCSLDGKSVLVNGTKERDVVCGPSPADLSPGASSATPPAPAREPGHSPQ
- ASSAY_INFO: ELISA, coated His-tagged 4-1BB, anti-human IgG-HRP
- Protocol: His-tagged 4-1BB was coated at 2 μg/ml overnight and then blocked by 2% BSA in PBS. Serially diluted anti-4-1BB nanobodies were incubated with the coated antigen for 1h at room temperature with a reference antibody “Ref mAb”. The resulting plates were washed with PBS/T and incubated with goat anti-human IgG-HRP for 1 h at room temperature. The plates were developed with TMB substrate and analyzed by spectrophotometer at OD 450 nm.
OBSERVABLE: pEC50
Give bare numbers, as −log10 of the molar value.

• VV02-1SP (1)-168 (Fc fusion, not shown: a dimerising Fc or GST; small tags and cut ends, Llama nanobody tested as fusion with human IgG1 Fc (N297A)) VHH: QVQLVESGGGLVQPGGSLRLSCAASGFTFSSYAMSWARQAPGKDFEWVSYIYSDGNTYYADSVKGRFTISRDNAKNTVYLQMNSLKPEDTAVYYCATWHTLRVGVWDEYDYWGQGTQVTVSS = 10.22
• VV02-1LP-263 (Fc fusion, Llama nanobody tested as fusion with human IgG1 Fc (N297A); not shown: Human IgG1 Fc fragment with N297A, fused at the C-terminus of the VHH) VHH: EVQLVESGGGLVQPGGSLRLSCAASGFTFSSSAMSWARQTPGKGFEWVSGIYSDGSTYYTDSVKDRFTISRDNAKNTVYLQMNSLKPEDTAVYYCATWGTLRFGVWAEYDHWGQGTQVTVSS = 10.40
• VV02-1SP (1)-73 (Fc fusion, not shown: a dimerising Fc or GST; small tags and cut ends, Llama nanobody tested as fusion with human IgG1 Fc (N297A)) VHH: EVDLVESGGGLVQPGGSLRLSCAVSGFTFSNSAMSWARQAPGKEFEWVSSIYSDGKTYYVDSVKGRFTISRDNAKNTVYLQMSSLKPEDTAVYYCATWKTLRVGVWDESDYWGQGTQVTVSS = 9.96
• VV02-1LP-317 (Fc fusion, not shown: a dimerising Fc or GST; small tags and cut ends, Llama nanobody tested as fusion with human IgG1 Fc (N297A)) VHH: EVDLVESGGGLVQPGGSLRLSCAASGFTFSRSAMSWARQAPGKGFEWVSGIYSGGSTYYVDSVEGRFTISRDNAKNTVYLQMNSLKPEDTAVYYCATWGSQQIGVWHEDDYWGQGTQVTVSS = 7.53
• VV02-3LP-83 (Fc fusion, Llama nanobody tested as fusion with human IgG1 Fc (N297A); not shown: Human IgG1 Fc fragment with N297A, plus the hinge or linker joining it to the nanobody) VHH: EVDLVESGGGLVQPGGSLRLSCAASGFTFRSYAMSWARQVPGKGFEWVAYIYSDGSTYYADSVKGRFTISRDNAKDTVYLHMNSLKFEDMAVYYCATWRSQQVGRWDEYDHWGQGTQVTVSS = 8.69

Quick batch: pEC50 for everything below.
1. VV02-2LP-13 (Fc fusion, Llama nanobody tested as fusion with human IgG1 Fc (N297A); not shown: Human IgG1 Fc fragment with N297A, plus the hinge or linker joining it to the nanobody) VHH: AVQLVESGGGLVQPGGSLRLSCAASGFTFSSYAMSWARQVPGKGFEWVAYIYSDGSTYYADSVKGRFTISRDNAKDTVYLHMNSLKFEDMAVYYCATWRSQQVGRWDEYDHWGQGTQVTVSS
2. VV02-1LP-238 (Fc fusion, not shown: a dimerising Fc or GST; small tags and cut ends, Llama nanobody tested as fusion with human IgG1 Fc (N297A)) VHH: QVQLVESGGGLVQAGGALRLSCAASGFTLDYSAIGWFRQAPGKEREGVLCISSSGDVTIYADSVKGRFTISRDNAKNTVYLQMNSLKPEDTAVYYCVAPRICSTYSSDDYWGQGTQVTVSS
3. VV02-1SP (1)-358 (Fc fusion, not shown: a dimerising Fc or GST; small tags and cut ends, Llama nanobody tested as fusion with human IgG1 Fc (N297A)) VHH: EVQLVESGGGLVQPGGSLMISCAASGFTFSSSAMSWARQVPGKGFEWVAYIYSDGSTYYADSVKGRFTISRDNAKDTVYLHMNSLKFEDMAVYYCATWRSQQVGRWDKYDYWGQGTQVTVSS

Result:
1: 8.38; 2: 7.58; 3: 9.96
